Cited source for all entries: the supplement of paper PMC7125110

Give measured self-cleavage kobs at 10000 uM GlcN6P for each item. Keep answers brief.
B1: glmS ribozyme (parent)
chain: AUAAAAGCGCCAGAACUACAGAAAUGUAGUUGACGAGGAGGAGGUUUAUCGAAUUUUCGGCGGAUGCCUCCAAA

# Variants of: B1
# EXPERIMENT_NOTES: self-cleavage kobs at 10000 uM GlcN6P; higher = faster cleavage; RNA array
# CONDITION_INFO: with glucosamine-6-phosphate
Fewer inactive variants are shown than the library holds.
Numbers only, in s⁻¹.

// solved cases for self-cleavage kobs at 10000 uM GlcN6P follow
> print(dat)
   mutation.code    result
1      U30A C71A   0.00072
2      A52G U54G  0.000855
3      U45G A64U  9.64e-05

Would you mind listing self-cleavage kobs at 10000 uM GlcN6P for each of the following variants?
1. A14U G44U
2. G40A G66C
3. A64G C71U
4. A53G U54A
5. U31G A72G
6. G37A U56A
7. U47A A48U

**A:**
["5.55e-05", 0.000774, 0.00552, 0.0724, 0.00988, 0.000962, 0.000181]
